Where do the numbers come from? From ChEMBL document CHEMBL3108746.

- studyTarget: Protein arginine N-methyltransferase 5 (Homo sapiens)
- assaySummary: Residual activity of recombinant human PRMT5 expressed in Sf9 cells using histone H4 peptide as substrate at 100 uM by chemiluminescence assay
I'd be grateful if you could share measured residual activity for these entries.
One number for each entry, in %.

chemicalString: O=C(Nc1ccc2ccc(S(=O)(=O)Nc3ccc4c(c3)OCCO4)cc2c1)Nc1ccc2ccc(S(=O)(=O)Nc3ccc4c(c3)OCCO4)cc2c1
residual activity, %: 71.8
//
chemicalString: O=C(Nc1ccc2ccc(S(=O)(=O)Nc3ccc(Oc4ccccc4)cc3)cc2c1)Nc1ccc2ccc(S(=O)(=O)Nc3ccc(Oc4ccccc4)cc3)cc2c1
residual activity, %: 38.5
//
chemicalString: O=C(O)/C=C/c1cccc(N2CCN(c3cccc(/C=C/C(=O)O)n3)C2=O)n1
residual activity, %: 10.3
//
chemicalString: O=C(NCCc1cccc(C(=O)O)c1)NCCc1cccc(C(=O)O)c1
residual activity, %: 15.4
//
chemicalString: O=C(O)/C=C/c1cccc(N2CCCN(c3cccc(/C=C/C(=O)O)n3)C2=O)n1
residual activity, %: 48.7
//
chemicalString: O=C(NCc1cccc(C(=O)O)c1)NCc1cccc(C(=O)O)c1
residual activity, %: 56.4
//
chemicalString: O=C(O)/C=C/c1cccc(N2CCN(c3cccc(/C=C/C(=O)O)c3)C2=O)c1
residual activity, %: 61.5
//
chemicalString: O=C(O)/C=C/c1ccc(N2CCN(c3ccc(/C=C/C(=O)O)cc3)C2=O)cc1
residual activity, %: 35.9

# evaluate next
# input May I ask what residual activity has been recorded for O=C(O)/C=C/c1ccc(N2CCCN(c3ccc(/C=C/C(=O)O)cc3)C2=O)cc1 ?
# output 56.4

---

- Tested on: LAPC4
- assaySummary: Cytotoxicity against human LAPC4 cells after 7 days by Alamar blue staining method
- Type: functional, cell-based
- conditionContext: LAPC4, 168 h
I'd appreciate it if you could supply pIC50 values for the items below.
Give bare numbers, as −log10 of the molar value.

Dear colleague, could you send me pIC50 for each of the items below? Thanks.
1. O=C(Nc1ccc2ccc(S(=O)(=O)Nc3ccc(Oc4ccccc4)cc3)cc2c1)Nc1ccc2ccc(S(=O)(=O)Nc3ccc(Oc4ccccc4)cc3)cc2c1
2. O=C(Nc1ccc2ccc(S(=O)(=O)Nc3ccc4c(c3)OCCO4)cc2c1)Nc1ccc2ccc(S(=O)(=O)Nc3ccc4c(c3)OCCO4)cc2c1

# output
1. 5.07
2. 5.82

---

- studyTarget: UniProt O14744
- Sequence (O14744 whole entry): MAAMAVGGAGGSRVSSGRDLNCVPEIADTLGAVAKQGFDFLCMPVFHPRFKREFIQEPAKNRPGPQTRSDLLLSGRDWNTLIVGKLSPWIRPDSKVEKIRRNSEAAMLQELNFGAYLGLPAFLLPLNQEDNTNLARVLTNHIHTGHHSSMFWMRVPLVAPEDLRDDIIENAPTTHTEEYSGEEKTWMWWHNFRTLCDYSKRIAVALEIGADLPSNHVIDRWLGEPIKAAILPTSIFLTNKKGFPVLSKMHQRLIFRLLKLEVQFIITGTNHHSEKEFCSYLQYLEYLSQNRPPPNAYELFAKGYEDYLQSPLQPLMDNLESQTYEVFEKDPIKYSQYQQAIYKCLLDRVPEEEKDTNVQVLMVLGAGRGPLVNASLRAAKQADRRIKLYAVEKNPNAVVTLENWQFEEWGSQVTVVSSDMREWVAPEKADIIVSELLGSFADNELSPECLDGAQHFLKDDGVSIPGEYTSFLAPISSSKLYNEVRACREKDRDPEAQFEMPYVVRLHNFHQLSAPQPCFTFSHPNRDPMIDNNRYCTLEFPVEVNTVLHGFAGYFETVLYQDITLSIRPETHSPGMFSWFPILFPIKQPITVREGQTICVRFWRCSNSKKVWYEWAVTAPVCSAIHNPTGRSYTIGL
- assaySummary: Residual activity of recombinant human PRMT5 expressed in Sf9 cells using histone H4 peptide as substrate at 100 uM by chemiluminescence assay
measure: residual activity

chemicalString: O=C(O)CCCCCNC(=O)NCCCCCC(=O)O
residual activity: 46.2%
//
chemicalString: O=C(O)/C=C/c1cccc(NC(=O)Nc2cccc(/C=C/C(=O)O)c2)c1
residual activity: 92.3%
//
chemicalString: O=C(O)/C=C/c1cccc(N2CCCN(c3cccc(/C=C/C(=O)O)c3)C2=O)c1
residual activity: 74.4%

# input for lookup
# input GET /values?readout=residual activity&item= COc1ccc2c3c(cccc13)C(=O)N(C)C2=O
# output 46.2%
